assayExplanation: Steady-state plasma pharmacokinetics
Type: in vivo, human
experimentalConditions: human, oral, GM Cmax, group 2, period 2 (day 35): raltegravir 800 mg once daily + darunavir/ritonavir 800/100 mg once daily
endpoint: Cmax (ng/mL)
Supply the numeric figure in ng/mL, leaving out any unit text.

Ask: Form field: reported Cmax of `Cc1nnc(C(=O)NC(C)(C)c2nc(C(=O)NCc3ccc(F)cc3)c(O)c(=O)n2C)o1`
Result: 556

* * *

assayExplanation: Steady-state intracellular
Assay type: in vivo, human
experimentalConditions: human, PBMC (intracellular), oral, 400 mg, GM Cmax, IC (PBMC); group 2; period 1 (day 21): raltegravir 400 mg twice daily, without darunavir/ritonavir
endpoint: Cmax (ng/mL)
Use ng/mL as the unit, but write only the number.

Ask: Consider the compound Cc1nnc(C(=O)NC(C)(C)c2nc(C(=O)NCc3ccc(F)cc3)c(O)c(=O)n2C)o1 [Raltegravir, raltegravir] and give its measured Cmax.
Result: 1870

* * *

assayExplanation: IC accumulation: ratio of IC drug to drug in plasma
experimentalConditions: human, PBMC (intracellular)/plasma, oral, 400 mg, GM IC to Plasma Ratio, AUC, group 2; period 1 (day 21): raltegravir 400 mg twice daily, without darunavir/ritonavir
endpoint: Kp
In your answer, state the number alone without any accompanying words.

Ask: Which Kp is reported for this compound? `Cc1nnc(C(=O)NC(C)(C)c2nc(C(=O)NCc3ccc(F)cc3)c(O)c(=O)n2C)o1`
Result: 5.6

* * *

Give measured Cmax for each item. Keep answers brief.
assayExplanation: Steady-state intracellular
Assay type: in vivo, human
experimentalConditions: human, PBMC, oral, GM Cmax, IC (PBMC); group 2; period 2 (day 35): raltegravir 800 mg once daily + darunavir/ritonavir 800/100 mg once daily
Answers without a unit are incomplete; give the number and then its unit.

Ask: Endpoint output: Cmax of Cc1nnc(C(=O)NC(C)(C)c2nc(C(=O)NCc3ccc(F)cc3)c(O)c(=O)n2C)o1 [Raltegravir, raltegravir] . Value?
Result: 2820 ng/mL

Ask: Which Cmax value belongs to CC(C)c1nc(CN(C)C(=O)N[C@H](C(=O)N[C@@H](Cc2ccccc2)C[C@H](O)[C@H](Cc2ccccc2)NC(=O)OCc2cncs2)C(C)C)cs1 [Ritonavir, ritonavir] ?
Result: 3290 ng/mL

* * *

assayExplanation: Steady-state plasma pharmacokinetics
Assay type: in vivo, human
experimentalConditions: human, oral, GM Ctrough, group 1, period 1 (day 21): raltegravir 400 mg twice daily, without darunavir/ritonavir
endpoint: concentration at 12 h (ng/mL)
Value expressed in ng/mL; do not type the unit.

Ask: Find the recorded concentration at 12 h belonging to Cc1nnc(C(=O)NC(C)(C)c2nc(C(=O)NCc3ccc(F)cc3)c(O)c(=O)n2C)o1 [Raltegravir, raltegravir] and report it.
Result: 23

* * *

assayExplanation: IC accumulation: ratio of IC drug to drug in plasma
experimentalConditions: human, PBMC (intracellular)/plasma, oral, GM IC to Plasma Ratio, Cmax, group 2; period 3 (day 49): darunavir/ritonavir 800/100 mg once daily, without raltegravir
endpoint: Kp
Reply briefly: the number, and no unit.

Ask: Need Kp, item `CC(C)c1nc(CN(C)C(=O)N[C@H](C(=O)N[C@@H](Cc2ccccc2)C[C@H](O)[C@H](Cc2ccccc2)NC(=O)OCc2cncs2)C(C)C)cs1`
Result: 5.2

Ask: Given `CC(C)CN(C[C@@H](O)[C@H](Cc1ccccc1)NC(=O)O[C@H]1CO[C@H]2OCC[C@H]21)S(=O)(=O)c1ccc(N)cc1` , state its recorded Kp.
Result: 4.8

* * *

assayExplanation: Steady-state plasma pharmacokinetics
Assay type: in vivo, human
experimentalConditions: human, GM Cmax, group 1, period 2 (day 35): raltegravir 400 mg twice daily + darunavir/ritonavir 800/100 mg once daily
Please go through the items and note down their Cmax.
Express the reported value numerically, then name its unit.

Ask: Bench note: what Cmax did `CC(C)c1nc(CN(C)C(=O)N[C@H](C(=O)N[C@@H](Cc2ccccc2)C[C@H](O)[C@H](Cc2ccccc2)NC(=O)OCc2cncs2)C(C)C)cs1` show?
Result: 483 ng/mL

Ask: // query Cmax value for entry `Cc1nnc(C(=O)NC(C)(C)c2nc(C(=O)NCc3ccc(F)cc3)c(O)c(=O)n2C)o1`
Result: 438 ng/mL

* * *

assayExplanation: Steady-state intracellular
Type: in vivo, human
experimentalConditions: human, PBMC, 400 mg, GM Cmax, IC (PBMC); group 1; period 1 (day 21): raltegravir 400 mg twice daily, without darunavir/ritonavir
endpoint: Cmax (ng/mL)
Write it as a number; the unit ng/mL goes unstated.

Ask: Fill in the blank: the reported Cmax of `Cc1nnc(C(=O)NC(C)(C)c2nc(C(=O)NCc3ccc(F)cc3)c(O)c(=O)n2C)o1` is ____.
Result: 2310

* * *

assayExplanation: IC accumulation: ratio of IC drug to drug in plasma
experimentalConditions: human, PBMC (intracellular)/plasma, oral, 400 mg, GM IC to Plasma Ratio, Cmax, group 1; period 1 (day 21): raltegravir 400 mg twice daily, without darunavir/ritonavir
endpoint: Kp
Lab note: jot down the number only; don't add units.

Ask: For Cc1nnc(C(=O)NC(C)(C)c2nc(C(=O)NCc3ccc(F)cc3)c(O)c(=O)n2C)o1 [Raltegravir, raltegravir] , what is its reported Kp?
Result: 4.6

* * *

assayExplanation: Steady-state intracellular
Format: in vivo, human
experimentalConditions: human, PBMC, oral, 400 mg, GM Cmax, IC (PBMC); group 1; period 1 (day 21): raltegravir 400 mg twice daily, without darunavir/ritonavir
endpoint: Cmax (ng/mL)
Write the answer as a number in ng/mL, unit excluded.

Ask: Reported Cmax for Cc1nnc(C(=O)NC(C)(C)c2nc(C(=O)NCc3ccc(F)cc3)c(O)c(=O)n2C)o1 [Raltegravir, raltegravir] : what is it?
Result: 2310

* * *

assayExplanation: IC accumulation: ratio of IC drug to drug in plasma
experimentalConditions: human, intracellular (PBMC) / plasma, GM IC to Plasma Ratio, AUC (raltegravir), group 1; period 2 (day 35): raltegravir 400 mg twice daily + darunavir/ritonavir 800/100 mg once daily
endpoint: Kp
Output spec: single numeric token, no unit.

Ask: Requested read-out: Kp. Entry: Cc1nnc(C(=O)NC(C)(C)c2nc(C(=O)NCc3ccc(F)cc3)c(O)c(=O)n2C)o1 [Raltegravir, raltegravir]
Result: 5.8

* * *

assayExplanation: IC accumulation: ratio of IC drug to drug in plasma
experimentalConditions: human, PBMC (intracellular)/plasma, oral, 400 mg, GM IC to Plasma Ratio, Cmax, group 2; period 1 (day 21): raltegravir 400 mg twice daily, without darunavir/ritonavir
endpoint: Kp

Ask: I am curious: what Kp value has been reported for `Cc1nnc(C(=O)NC(C)(C)c2nc(C(=O)NCc3ccc(F)cc3)c(O)c(=O)n2C)o1` ?
Result: 5.5

* * *

assayExplanation: Steady-state intracellular
Assay type: in vivo, human
experimentalConditions: human, PBMC, oral, GM Cmax, IC (PBMC); group 1; period 2 (day 35): raltegravir 400 mg twice daily + darunavir/ritonavir 800/100 mg once daily
endpoint: Cmax (ng/mL)
# output: bare number, implied unit ng/mL

Ask: Entry under review: `CC(C)c1nc(CN(C)C(=O)N[C@H](C(=O)N[C@@H](Cc2ccccc2)C[C@H](O)[C@H](Cc2ccccc2)NC(=O)OCc2cncs2)C(C)C)cs1` . Reported Cmax?
Result: 3880

Ask: Fill in: Cmax of `Cc1nnc(C(=O)NC(C)(C)c2nc(C(=O)NCc3ccc(F)cc3)c(O)c(=O)n2C)o1` is ___
Result: 2170

* * *

assayExplanation: IC accumulation: ratio of IC drug to drug in plasma
experimentalConditions: human, PBMC (intracellular)/plasma, oral, GM IC to Plasma Ratio, Ctrough, group 2; period 3 (day 49): darunavir/ritonavir 800/100 mg once daily, without raltegravir
Record form. Attribute: Kp. Fill in for each entry.
Write the number on its own, no unit after it.

Ask: Which Kp reading was recorded for the compound `CC(C)c1nc(CN(C)C(=O)N[C@H](C(=O)N[C@@H](Cc2ccccc2)C[C@H](O)[C@H](Cc2ccccc2)NC(=O)OCc2cncs2)C(C)C)cs1` ?
Result: 10.6

Ask: What measured Kp goes with `CC(C)CN(C[C@@H](O)[C@H](Cc1ccccc1)NC(=O)O[C@H]1CO[C@H]2OCC[C@H]21)S(=O)(=O)c1ccc(N)cc1` ?
Result: 4.4

* * *

assayExplanation: IC accumulation: ratio of IC drug to drug in plasma
experimentalConditions: human, intracellular (PBMC) / plasma, oral, GM IC to Plasma Ratio, AUC (darunavir, ritonavir), group 2; period 2 (day 35): darunavir/ritonavir 800/100 mg once daily + raltegravir 800 mg once daily
I'd be grateful if you could share measured Kp for these entries.

Ask: Which Kp value belongs to `CC(C)c1nc(CN(C)C(=O)N[C@H](C(=O)N[C@@H](Cc2ccccc2)C[C@H](O)[C@H](Cc2ccccc2)NC(=O)OCc2cncs2)C(C)C)cs1` ?
Result: 6.9

Ask: Field request: Kp | item: `CC(C)CN(C[C@@H](O)[C@H](Cc1ccccc1)NC(=O)O[C@H]1CO[C@H]2OCC[C@H]21)S(=O)(=O)c1ccc(N)cc1`
Result: 5.6
